biological target: MDM2 (MDM2-MDM4 RING domain heterodimer) (Homo sapiens, UniProt O15151+Q00987); construct: RING domain heterodimers of MDM2-MDM4, co-expressed in E. coli; with MDM4 (RING domain); assay: microscale thermophoresis; thermofluor (Tm […] to […] °C); in vitro ubiquitination activation
Sequence (Q00987 428-491 limits assumed): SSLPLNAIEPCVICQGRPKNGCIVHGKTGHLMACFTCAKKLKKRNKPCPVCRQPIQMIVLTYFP
Sequence (O15151 428-490 limits assumed): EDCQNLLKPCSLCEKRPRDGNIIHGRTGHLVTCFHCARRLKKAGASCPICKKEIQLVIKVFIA

# COMPOUND, Kd
data = [
    ("O=C1Nc2ccc(Br)cc2C12NN=C(c1ccccc1)S2 (stereo not shown)", "~308 nM"),
]

Source: paper PMC11700832
